Biological target: Recombinant CETP enzyme (Homo sapiens)
Sequence (P11597 18-493): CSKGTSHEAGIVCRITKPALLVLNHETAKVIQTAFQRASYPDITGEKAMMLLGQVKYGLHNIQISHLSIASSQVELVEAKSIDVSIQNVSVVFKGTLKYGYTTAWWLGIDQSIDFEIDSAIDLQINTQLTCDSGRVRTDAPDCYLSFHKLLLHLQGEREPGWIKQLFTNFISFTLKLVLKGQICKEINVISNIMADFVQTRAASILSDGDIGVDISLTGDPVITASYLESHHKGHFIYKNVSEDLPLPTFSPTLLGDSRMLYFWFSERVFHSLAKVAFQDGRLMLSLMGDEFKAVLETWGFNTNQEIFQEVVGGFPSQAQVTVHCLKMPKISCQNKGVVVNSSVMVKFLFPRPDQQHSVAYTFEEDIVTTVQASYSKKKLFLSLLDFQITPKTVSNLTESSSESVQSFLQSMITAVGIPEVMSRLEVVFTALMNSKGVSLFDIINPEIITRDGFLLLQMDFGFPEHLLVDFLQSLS
Assay: In vitro fluorescence-based CETP inhibition assay (BODIPY-CE transfer from donor to acceptor microemulsions)
Conditions: recombinant CETP 0.14 ng/μl; transfer of fluorescent cholesteryl ester monitored over 2 hours; vs DMSO controls
value-kind: IC50

Incoming: Which IC50 is listed for CCN(CC1CCCC1)c1nc2ccccc2cc1CN(Cc1cc(C(F)(F)F)cc(C(F)(F)F)c1)C1=NCCO1 [Example 68] ?
Outgoing: ≤ 5000 nM

Incoming: Which IC50 is listed for CCn1ncc2cc(CN(Cc3cc(C(F)(F)F)cc(C(F)(F)F)c3)c3nnn(C)n3)c(N(CC3CC3)CC3CC3)nc21 [Example 14] ?
Outgoing: ≤ 1000 nM

Incoming: Consider the molecule CCN(CC1CC1)c1nc2ccccc2cc1CN(Cc1cc(C(F)(F)F)cc(C(F)(F)F)c1)C(=O)OC [Example 44] and give its measured IC50.
Outgoing: ≤ 5000 nM

Incoming: Could you share which IC50 value was measured for CCN(CC1CCCC1)c1nc2ccccc2cc1CN(Cc1cc(C(F)(F)F)cc(C(F)(F)F)c1)C(N)=O [Example 59] ?
Outgoing: ≤ 5000 nM

Incoming: // query IC50 value for entry CCOC(=O)c1c(CN(Cc2cc(C(F)(F)F)cc(C(F)(F)F)c2)c2nnn(C)n2)c2ccccc2n1C(=O)C1CCCC1 [Example 127]
Outgoing: ≤ 1000 nM

Incoming: Fill in the blank: the reported IC50 of CCN(CC1CCCC1)c1nc2c(cc1CN(Cc1cc(C(F)(F)F)cc(C(F)(F)F)c1)c1nnn(C)n1)CCCC2 [Example 77] is ____.
Outgoing: ≤ 1000 nM

Incoming: Query: IC50; subject: Cc1cccc2cc(CN(Cc3cc(C(F)(F)F)cc(C(F)(F)F)c3)c3nnn(C)n3)c(N(CC3CC3)CC3CC3)nc12 [Example 57]
Outgoing: ≤ 1000 nM

====

Biological target: Recombinant CETP enzyme (Homo sapiens, UniProt P11597)
Test: In vitro fluorescence-based CETP inhibition assay (BODIPY-CE transfer from donor to acceptor microemulsions)
Details: recombinant CETP 0.14 ng/μl; transfer of fluorescent cholesteryl ester monitored over 2 hours; vs DMSO controls
pIC50: −log10 of the molar value.
value-kind: pIC50

Incoming: Requested read-out: pIC50. Entry: `Cn1nnc(N(Cc2cc(C(F)(F)F)cc(C(F)(F)F)c2)Cc2cc3cccc(Cl)c3nc2N(CC2CC2)CC2CC2)n1`
Outgoing: ≥ 6.00

Incoming: Looking for the measured pIC50 of `CCN(c1nc2c(cc1CN(Cc1cc(C(F)(F)F)cc(C(F)(F)F)c1)c1nnn(C)n1)c(C)nn2C)C1CCCC1` , can you help?
Outgoing: ≥ 6.00

Incoming: Could you tell me which pIC50 is on file for `CCN(CC1CCCC1)c1nc2ccccc2cc1CN(Cc1cc(C(F)(F)F)cc(C(F)(F)F)c1)c1nnnn1C` ?
Outgoing: ≥ 5.30

Incoming: Entry `CCN(CC1CCC1)c1nc2c(cnn2CC)cc1CN(Cc1cc(C(F)(F)F)cc(C(F)(F)F)c1)c1nnn(C)n1` : reported pIC50 = ?
Outgoing: ≥ 6.00

Incoming: Fill in: pIC50 of `CCCCN(CC)c1ncccc1CN(Cc1cc(C(F)(F)F)cc(C(F)(F)F)c1)c1nnn(C)n1` is ___
Outgoing: ≥ 5.30

Incoming: Name the recorded pIC50 for `CCN(CC1CC1)c1nc2ccccc2cc1CN(Cc1cc(C(F)(F)F)cc(C(F)(F)F)c1)c1nnn(C)n1` .
Outgoing: ≥ 6.00

Incoming: If you can, please state the reported pIC50 value of `CCN(CC1CC1)c1nc2c(cc1CN(Cc1cc(C(F)(F)F)cc(C(F)(F)F)c1)c1nnn(C)n1)c(C)nn2C` .
Outgoing: ≥ 6.00

Incoming: Name the recorded pIC50 for `CCN(CC1CCCC1)c1nc2ccccc2cc1CN(Cc1cc(C(F)(F)F)cc(C(F)(F)F)c1)C(=S)SC` .
Outgoing: ≥ 5.30

Incoming: Please give the measured pIC50 for this compound: `CCN(CC1CCCC1)c1nc2ccccc2cc1CN(Cc1cc(C(F)(F)F)cc(C(F)(F)F)c1)Cc1nnnn1C`
Outgoing: ≥ 5.30

Incoming: // lookup pIC50 for `CCN(CC1CCC1)c1nc2c(cnn2CC2CC2)cc1CN(Cc1cc(C(F)(F)F)cc(C(F)(F)F)c1)c1nnn(C)n1`
Outgoing: ≥ 6.00

Incoming: Given `Cc1cccc2cc(CN(Cc3cc(C(F)(F)F)cc(C(F)(F)F)c3)c3nnn(CCO)n3)c(N(CC3CC3)CC3CC3)nc12` , state its recorded pIC50.
Outgoing: ≥ 6.00
